# Study System: plasmin (pig) (Sus scrofa, UniProt P06867)
# Sequence (P06867 97-809): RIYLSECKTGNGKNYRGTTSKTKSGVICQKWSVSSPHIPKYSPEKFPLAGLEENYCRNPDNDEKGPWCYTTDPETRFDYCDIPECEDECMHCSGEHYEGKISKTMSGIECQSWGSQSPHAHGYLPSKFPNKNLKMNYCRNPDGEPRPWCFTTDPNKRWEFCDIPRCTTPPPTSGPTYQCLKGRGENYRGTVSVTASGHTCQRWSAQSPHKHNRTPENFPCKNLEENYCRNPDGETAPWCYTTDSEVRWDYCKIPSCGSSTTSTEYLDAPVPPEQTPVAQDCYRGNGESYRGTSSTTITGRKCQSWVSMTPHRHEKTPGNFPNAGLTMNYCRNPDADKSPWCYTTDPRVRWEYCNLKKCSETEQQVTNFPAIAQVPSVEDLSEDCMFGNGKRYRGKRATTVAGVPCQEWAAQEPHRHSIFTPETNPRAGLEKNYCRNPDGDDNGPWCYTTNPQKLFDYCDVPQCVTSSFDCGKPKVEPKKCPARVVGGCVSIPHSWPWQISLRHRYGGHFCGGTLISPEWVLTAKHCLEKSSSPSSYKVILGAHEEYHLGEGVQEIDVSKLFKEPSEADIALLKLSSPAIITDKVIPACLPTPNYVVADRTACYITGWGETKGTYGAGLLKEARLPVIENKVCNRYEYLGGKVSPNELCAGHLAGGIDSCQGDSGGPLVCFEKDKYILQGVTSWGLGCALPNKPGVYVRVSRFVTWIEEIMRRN
# Method Description: Km, Vmax and Vmax/Km of substrates for plasmin (pig)
# Assay type: biochemical, Porcine (pig)
# Condition Description: TABLE 2; V/Km of each sample divided by that of S2251 (so in the source)
Readout Name: Relative ratio
Give bare numbers.

Hi, could you look up Relative ratio for each item in my list?
1. NCCCC[C@H](NC(=O)[C@H](Cc1ccccc1)NC(=O)[C@H](N)CCC(=O)NCCc1ccccc1)C(=O)Nc1ccc(O)c(C(=O)O)c1 [NPC-23]
2. Cc1ccc(S(=O)(=O)NCCC[C@@H](N)C(=O)N[C@@H](Cc2ccccc2)C(=O)N[C@@H](CCCCN)C(=O)Nc2ccc(O)c(C(=O)O)c2)cc1 [NPC-18]
3. Cc1cc(C)c(S(=O)(=O)NCCCC[C@@H](N)C(=O)N[C@@H](Cc2ccccc2)C(=O)N[C@@H](CCCCN)C(=O)Nc2ccc(O)c(C(=O)O)c2)c(C)c1 [NPC-10, HD-Lys(Mst)PheLysCHA.2HCl]

Return:
[43.045, 58.558, 94.369]

Count: 4. Required value per item: Relative ratio.
1. CC(C)[C@@H](N)C(=O)N[C@@H](Cc1ccccc1)C(=O)N[C@@H](CCCCN)C(=O)Nc1ccc(O)c(C(=O)O)c1 [NPC-2, HD-ValPheLysCHA.2HCl]
2. NCCCC[C@H](NC(=O)[C@H](Cc1ccccc1)NC(=O)[C@H](N)CCCCNC(=O)Cc1ccccc1)C(=O)Nc1ccc(O)c(C(=O)O)c1 [NPC-16]
3. CC(=O)NCCCC[C@@H](N)C(=O)N[C@@H](Cc1ccccc1)C(=O)N[C@@H](CCCCN)C(=O)Nc1ccc(O)c(C(=O)O)c1 [NPC-4, HD-Lys(AC)PheLysCHA.2HCl]
4. Cc1ccc(C(=O)NCCCC[C@@H](N)C(=O)N[C@@H](Cc2ccccc2)C(=O)N[C@@H](CCCCN)C(=O)Nc2ccc(O)c(C(=O)O)c2)cc1 [NPC-6, HD-Lys(Toc)PheLysCHA.2HCl]

Return:
1: 11.811; 2: 68.162; 3: 39.351; 4: 137.973

Batch request: Relative ratio for each of the following molecules.
1. NCCCC[C@@H](N)C(=O)N[C@@H](Cc1ccccc1)C(=O)N[C@@H](CCCCN)C(=O)Nc1ccc(O)c(C(=O)O)c1 [NPC-3]
2. Cc1ccc(CCNC(=O)CC[C@@H](N)C(=O)N[C@@H](Cc2ccccc2)C(=O)N[C@@H](CCCCN)C(=O)Nc2ccc(O)c(C(=O)O)c2)cc1 [NPC-24]

Return:
1. 30.432
2. 46.748
